# test method notes: Water solubility was determined
# Format: ADME
# protocol conditions: read-out: WS
quantity name: solubility (µM)
Use µM as the unit, but write only the number.

compound | solubility (µM)
CC(CCC(=O)N1CCC[C@@H]1C(=O)O)C1CC[C@H]2[C@@H]3C[C@H](O)C4C[C@H](O)CC[C@]4(C)[C@H]3CC[C@]12C (stereo partly drawn) | 52
CC(CCC(=O)N1CCC[C@H]1C(=O)O)C1CC[C@H]2[C@@H]3[C@@H](O)CC4C[C@H](O)CC[C@]4(C)[C@H]3CC[C@]12C (stereo partly drawn) | 59
CC(CCC(=O)N1CCC[C@@H]1C(=O)O)C1CC[C@H]2[C@@H]3[C@H](O)[C@H](O)C4C[C@H](O)CC[C@]4(C)[C@H]3CC[C@]12C (stereo partly drawn) | 60

Fill in the blank: the reported solubility of CO[C@H]1C[C@H](C(=O)O)N(C(=O)CCC(C)C2CC[C@H]3[C@@H]4[C@@H](O)CC5C[C@H](O)CC[C@]5(C)[C@H]4CC[C@]23C)C1 (stereo partly drawn) is ____.
30

Fill in the blank: the reported solubility of CC(CCC(=O)NCC(=O)O)C1CC[C@H]2[C@@H]3[C@H](O)CC4C[C@H](O)CCC4(C)[C@H]3CCC12C (stereo partly drawn) is ____.
8

Fill in the blank: the reported solubility of C[C@H](CCC(=O)O)[C@H]1CC[C@H]2[C@@H]3[C@@H](O)C[C@@H]4C[C@H](O)CC[C@]4(C)[C@H]3CC[C@]12C [URSODIOL] is ____.
8

Fill in the blank: the reported solubility of CC(CCC(=O)N1CCC[C@@H]1C(=O)O)C1CC[C@H]2[C@@H]3[C@@H](O)CC4C[C@H](O)CC[C@]4(C)[C@H]3CC[C@]12C (stereo partly drawn) is ____.
113

Fill in the blank: the reported solubility of CC(CCC(=O)N1C[C@@H](O)C[C@@H]1C(=O)O)C1CC[C@H]2[C@@H]3[C@@H](O)CC4C[C@H](O)CC[C@]4(C)[C@H]3CC[C@]12C (stereo partly drawn) is ____.
250
